- System: SNB-75
- procedure summary: NCI tumour cell line growth inhibition, 48 h
The source made the active and inactive calls. Cut-off read from the data, not from the text of the source: active = GI50 up to about 1.1 µM and inactive = higher. Where a SMILES comes first, the peptide text is derived from it. [ ]: non-standard residue; d: D form. The star is where a group is joined. Phe(4-NO2) = N[CH](Cc1ccc([N+](=O)[O-])cc1)C(=O)O; Cbz = O=C(OCc1ccccc1)*
recorded endpoint: GI50

Reference set, count: 5
C=C1C(=O)O[C@H]2C[C@@]3(C)[C@H](O)CCC(=C)[C@@H]3[C@@H](OC(C)=O)[C@H]12	13.1 µM (inactive)
COC(=O)c1sc2ncc3c(c2c1N)CCCCCC3	97.3 µM (inactive)
CCOC1NC(=O)Oc2cc3ccccc3cc21 (centres undefined)	60.5 µM (inactive)
CCCCCCCCCCCOCCC1C(C(C)OCCN2CCCC2)OC2OC(C)(C)OC21 (centres undefined)	2.47 µM (inactive)
CN1C(c2ccccc2)CS(=O)(=O)CS1(=O)=O (centres undefined)	> 100 µM (inactive)

Parameter requested: GI50. Apply to each item below.
1. Oc1cccc2cc(Cl)cnc12
2. NC(=O)Cc1nc2c(O)ncnc2n1C1OC(CO)C(O)C1O (centres undefined)
3. Clc1ccc(-c2nnc(-c3nsc4ccccc34)o2)cc1
4. Nc1c(-c2ccc(-c3c(N)[n+]([O-])c4ccccc4[n+]3[O-])cc2)[n+]([O-])c2ccccc2[n+]1[O-]
5. C=CCN(N=O)C(=O)NCCCC(NC(C)=O)C(=O)NCc1ccccc1 (centres undefined)
6. CCN(CC)CC(C(=O)Nc1c(C)cccc1C)/C(C)=N/NC(N)=S (centres undefined)

Outgoing:
1. 28.1 µM (inactive)
2. > 100 µM (inactive)
3. 8.17 µM (inactive)
4. 8.15 µM (inactive)
5. > 100 µM (inactive)
6. > 100 µM (inactive)

Parameter requested: GI50. Apply to each item below.
1. C=C1[C@@H](O)C[C@@]23CC[C@@H]4[C@@]5(C)CC[C@@H](OC(C)=O)C(C)(C)[C@@H]5C[C@@H](OC5OC(COC(C)=O)C(O)C(O)C5O)[C@@]4(C)C2=CC[C@H]3[C@H]1C (some centres undefined)
2. O=[N+]([O-])c1ccc(/C=C(/c2ccc([N+](=O)[O-])o2)S(=O)(=O)c2ccccc2)cc1
3. CCCCCCOP(=O)(OCCCCCC)OC(C(=O)OC)C(F)(F)F (centres undefined)
4. CCOC(=O)CCC(NC(=O)OCc1ccccc1)C(=O)NC(CCC(=O)OCC)C(=O)NC(Cc1ccc([N+](=O)[O-])cc1)C(=O)NC(CCC(=O)OCC)C(=O)NC(CCC(=O)OCC)C(=O)OCC (centres undefined) (Cbz-E(OEt)E(OEt)[Phe(4-NO2)]E(OEt)E(OEt)-OEt; configuration not given here)
5. COc1cc(C(=O)O)c([N+](=O)[O-])c(OC)c1OC
6. N#Cc1nc2cc(Cl)ccc2nc1N1CCN(c2ccc([N+](=O)[O-])cc2)CC1
7. COC(=O)c1cc(C)ccc1C1CN=NC12Cc1c(C)cc(C)cc1C2=O (centres undefined)
8. N#Cc1c(CC(=O)O)cc(=O)n2c1[nH]c1ccccc12

Outgoing:
3.96 µM (inactive)
> 100 µM (inactive)
> 100 µM (inactive)
> 100 µM (inactive)
> 100 µM (inactive)
> 100 µM (inactive)
23.9 µM (inactive)
> 100 µM (inactive)
